# assayed_system: T1, 006 PSMA Fab
# T1 construct: In the phage ELISA the PSMA Fab was biotinylated and captured on neutravidin coated plates; also called Anti-PSMA Fab
# protocol_details: clonal phage ELISA; biotinylated PSMA Fab captured on neutravidin plate, blocking buffer alone; bound phage detected with anti-M13 HRP
readout_label: Phage binding ELISA signal, Anti-PSMA Fab

1. AVHMCAPSWMCSGF [Phage-3952] = 0.87
2. LTVYCTPEWMCSGW [Phage-3948] = 0.882
3. STMSCVPSWMCLGF [Phage-3946] = 0.885
4. EFRECRPPWMCQGL [Phage-3944] = 0.899
5. GDIQCRPLWMCDGL [Phage-3942] = 0.907
6. TQVKCIPLWMCDGF [Phage-3947] = 0.885
7. ILPRCEPYWMCTGL [Phage-3950] = 0.872
8. TVRSCTPPWMCEGF [Phage-3951] = 0.871
9. DQVMCIPRWMCEGF [Phage-3943] = 0.904
10. GWVGCVPLWMCEGF [Phage-3949] = 0.878
11. LVRMCQPPWMCDGF [Phage-3941] = 0.912
12. PLTSCVPQWMCYGF [Phage-3940] = 0.913
13. DSLVCQPRWMCVGF [Phage-3945] = 0.895
14. YARECIPQWMCGGF [Phage-3939] = 0.918
